molecular target: human PTH1 receptor (Homo sapiens, UniProt Q03431); test: In vitro cAMP signal activity in HKRK-B7 cells (LLC-PK1 cells overexpressing the human PTH1 receptor); assay type: cell-based; settings: HKRK-B7 cells; compound at 1×10^−3 M; cAMP produced as percentage of that produced by hPTH(1-34) at 100 nM
Sequence (Q03431 27-593): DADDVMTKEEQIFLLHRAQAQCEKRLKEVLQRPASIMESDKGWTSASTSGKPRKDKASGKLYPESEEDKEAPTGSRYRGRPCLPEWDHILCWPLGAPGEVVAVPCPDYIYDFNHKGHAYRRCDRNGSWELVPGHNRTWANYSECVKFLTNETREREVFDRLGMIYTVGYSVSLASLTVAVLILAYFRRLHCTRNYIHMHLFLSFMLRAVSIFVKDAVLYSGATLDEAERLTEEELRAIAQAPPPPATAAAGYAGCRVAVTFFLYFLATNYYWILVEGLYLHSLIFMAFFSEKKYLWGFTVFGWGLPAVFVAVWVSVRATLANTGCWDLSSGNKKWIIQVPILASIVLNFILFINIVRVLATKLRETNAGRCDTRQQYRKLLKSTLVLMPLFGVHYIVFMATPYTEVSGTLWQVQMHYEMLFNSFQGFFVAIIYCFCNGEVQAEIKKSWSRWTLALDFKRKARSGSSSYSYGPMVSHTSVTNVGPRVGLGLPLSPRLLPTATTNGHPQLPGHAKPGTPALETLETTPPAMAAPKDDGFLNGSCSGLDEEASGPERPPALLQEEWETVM
Note to self: class labels come from recorded cAMP production activity (%), ranges listed here: low: < 50%; mid: ≥ 50% and < 70%; high: ≥ 70%

A selection of reference data follows.
compound="Cc1cc(C(=O)N2CCC(C)(O)CC2)cc(C)c1/C=C/S(=O)(=O)N1CCC2(CC1)N=C(c1ccc(C(F)(F)F)c(OCC(F)(F)C(F)F)c1)NC2=O [Compound 1223]" label=mid
compound="Cc1cc(C(=O)N(C)C)ccc1CCS(=O)(=O)N1CCC2(CC1)N=C(c1ccc(C(F)(F)F)cc1)NC2=O [Compound 75]" label=high
compound="Cc1cc(C(=O)N2CC[C@H](O)C2)cc(C)c1/C=C/S(=O)(=O)N1CCC2(CC1)N=C(c1cccc(OC(F)(F)F)c1)NC2=O [Compound 402]" label=high

Please classify: CC1(C)OC[C@H](Cn2ccc3c(/C=C/S(=O)(=O)N4CCC5(CC4)N=C(C4CCCCC4)NC5=O)c(F)ccc32)O1 [Compound 500] mid

Each compound maps to one class by cAMP production activity (%). Which class for O=C(CO)NCc1ccc(/C=C/S(=O)(=O)N2CCC3(CC2)N=C(C2CCCCC2)NC3=O)cc1 [Compound 489] ? low

# bin lookup: classify Cc1cc(C(=O)N(C)C)ccc1CCS(=O)(=O)N1CCC2(CC1)N=C(c1ccc(F)c(C(F)(F)F)c1)NC2=O [Compound 107] by its cAMP production activity (%) high

Lab note: sort CC(=O)OC[C@H](CN(C(C)=O)c1ccc(CCS(=O)(=O)N2CCC3(CC2)N=C(c2cccc(C(F)(F)F)c2)NC3=O)c(C)c1)OC(C)=O [Compound 150] into the matching cAMP production activity (%) band. mid

Which bin should I file Cc1cc(C(=O)N(C)C)ccc1CCS(=O)(=O)N1CCC2(CC1)N=C(c1ccc(Cl)cc1F)NC2=O [Compound 129] under? low

Class label required: O=C1NC(CCC2CCCCC2)=NC12CCN(S(=O)(=O)c1cccc(Cl)c1)CC2 [Compound 30] low

Looking at Cc1cc(N2C(=O)NC(CO)C2=O)cc(C)c1CCS(=O)(=O)N1CCC2(CC1)N=C([C@H]1CC[C@H](C)CC1)NC2=O (stereo partly shown) [Compound 1299] , which class would you pick? high

Hi, small favor: classify CC(=O)NCc1cc(C)c(/C=C/S(=O)(=O)N2CCC3(CC2)N=C(C2CCC(CCC(F)(F)F)CC2)NC3=O)c(C)c1 (stereo not shown) [Compound 558] by its cAMP production activity (%) when you get a moment. high

----------
The following compounds are listed with their measured cAMP production activity (%) values.
target: UniProtKB Q03431; test: In vitro cAMP signal activity in HKRK-B7 cells (LLC-PK1 cells overexpressing the human PTH1 receptor); type: cell-based; conditions: HKRK-B7 cells; compound at 1×10^−3 M; cAMP produced as percentage of that produced by hPTH(1-34) at 100 nM
Numeric only. Scale: %

compound=O=C1NC(C2CCCCC2)=NC12CCN(S(=O)(=O)/C=C/c1cc3cc[nH]c3cc1C(F)(F)F)CC2 tested_system="UniProtKB Q03431" recorded_result=37
compound="O=C1NC(c2cccc(OC(F)(F)F)c2)=NC12CCN(S(=O)(=O)/C=C/c1cc(Cl)c(OCCC(O)CO)cc1Cl)CC2 (stereo not shown)" tested_system="UniProtKB Q03431" recorded_result=78
compound="Cc1cc(N(C)c2ncc[nH]2)cc(C)c1CCS(=O)(=O)N1CCC2(CC1)N=C(C1CCC(C)CC1)NC2=O (stereo not shown)" tested_system="UniProtKB Q03431" recorded_result=77

Record summary for Cc1cc2c(ccn2C[C@@H](O)CO)c(C)c1CCS(=O)(=O)N1CCC2(CC1)N=C(C1CCC(CCC(F)(F)F)CC1)NC2=O (stereo partly shown) : reported cAMP production activity (%) = 6.1

According to the records, this compound "Cc1cc(CNC(=O)OC(C)(C)C)ccc1CCS(=O)(=O)N1CCC2(CC1)N=C(c1ccc(F)c(C(F)(F)F)c1)NC2=O" displays cAMP production activity (%) of 45

Per the records, this compound ( "Cc1cc(C(=O)N2CCC(O)(CF)CC2)cc(C)c1CCS(=O)(=O)N1CCC2(CC1)N=C(c1ccc3c(c1)OC(F)(F)C(F)(F)O3)NC2=O" ) has cAMP production activity (%) equal to 95

"CN(CCO)S(=O)(=O)c1ccc(/C=C/S(=O)(=O)N2CCC3(CC2)N=C(C2CCCCC2)NC3=O)c(C(F)(F)F)c1" yielded cAMP production activity (%) of 21

----------
biological target: human PTH1 receptor (Homo sapiens, UniProt Q03431); experiment: In vitro cAMP signal activity in HKRK-B7 cells (LLC-PK1 cells overexpressing the human PTH1 receptor); assay type: cell-based; conditions: HKRK-B7 cells; compound at 1×10^−3 M; cAMP produced as percentage of that produced by hPTH(1-34) at 100 nM
Field: label. Allowed values: Criterion met (cAMP production activity (%) < 80%) or Criterion not met (cAMP production activity (%) >= 80%).

Answered cases to consult:
compound="O=C1NC(C2CCC(C(F)(F)F)CC2)=NC12CCN(S(=O)(=O)c1cccc(Cl)c1)CC2 (stereo not shown)" label="Criterion met"
compound="Cc1cc(OCCC(O)CO)ccc1/C=C/S(=O)(=O)N1CCC2(CC1)N=C(c1ccc3c(c1)OC(F)(F)O3)NC2=O (stereo not shown)" label="Criterion not met"
compound="CCCCCCC(CCC)CCC1=NC2(CCN([S@TB18](=O)(=O)/C=C/c3c(C)cc(N(C)C(N)=O)cc3C)CC2)C(=O)N1 (stereo not shown)" label="Criterion not met"
compound=CCCCCCCCCC1=NC2(CCN(S(=O)(=O)/C=C/c3ccc(N(CCOCCO)C(C)=O)cc3C)CC2)C(=O)N1 label="Criterion not met"
compound=O=C(Cc1c[nH]c2cccc(CCS(=O)(=O)N3CCC4(CC3)N=C(C3CCCCC3)NC4=O)c12)NCc1ccccc1 label="Criterion met"

Pending compound:
Check if cAMP production activity (%) falls below 80% for "Cc1cc2c(CCS(=O)(=O)N3CCC4(CC3)N=C(C3CCCCC3)NC4=O)cccc2[nH]1" . Criterion met

----------
target: human PTH1 receptor (Homo sapiens, UniProt Q03431); experiment: In vitro cAMP signal activity in HKRK-B7 cells (LLC-PK1 cells overexpressing the human PTH1 receptor); format: cell-based; settings: HKRK-B7 cells; compound at 1×10^−3 M; cAMP produced as percentage of that produced by hPTH(1-34) at 100 nM
Quantity: cAMP production activity (%)
Just the number please, in %, no unit attached.

Example cases with answers are listed next.
molecule=O=C1NC(c2cccc(C(F)(F)F)c2)=NC12CCN(S(=O)(=O)CCc1ccc(NCCO)cc1C(F)(F)F)CC2 recorded_result=54
molecule=CN1CCN(C(=O)NCc2ccc(/C=C/S(=O)(=O)N3CCC4(CC3)N=C(C3CCCCC3)NC4=O)cc2)CC1 recorded_result=24
molecule=Cc1cc(C(=O)N2CC(F)(F)C(F)(F)C2)ccc1CCS(=O)(=O)N1CCC2(CC1)N=C(C1CCCCC1)NC2=O recorded_result=63

Okay, next one:
Noted for "CCCCCCCCCC1=NC2(CCN(S(=O)(=O)/C=C/c3c(C)cc(N(CCO)C(C)=O)cc3C)CC2)C(=O)N1" : its cAMP production activity (%) reads 140

----------
target: human PTH1 receptor (Homo sapiens); assay: In vitro cAMP signal activity in HKRK-B7 cells (LLC-PK1 cells overexpressing the human PTH1 receptor); assay type: cell-based; settings: HKRK-B7 cells; compound at 1×10^−3 M; cAMP produced as percentage of that produced by hPTH(1-34) at 100 nM
Quantity: cAMP production activity (%)
Only the number, expressed in %, is required.

These recorded examples may help you get a feel for the data.
compound="O=C1NC(C2CCC(CCC(F)(F)F)CC2)=NC12CCN(S(=O)(=O)/C=C/c1cccc3c1ccn3CCOC[C@H](O)[C@@H](O)CO)CC2 (some centres unmarked)" recorded_result=90
compound="CC(=O)NCc1cc(C)c(/C=C/S(=O)(=O)N2CCC3(CC2)N=C(C2CCC(C)CC2)NC3=O)c(C)c1 (centres unmarked)" recorded_result=82
compound=Cc1cc(C(=O)N2C[C@H](NC(C)C)[C@@H](O)C2)cc(C)c1/C=C/S(=O)(=O)N1CCC2(CC1)N=C(c1cccc(OC(F)(F)F)c1)NC2=O recorded_result=100
compound="Cc1cc(OCCC(O)CO)cc(C)c1/C=C/S(=O)(=O)N1CCC2(CC1)N=C(c1ccc(F)c(C(F)(F)F)c1)NC2=O (centres unmarked)" recorded_result=101
compound=CCCc1cc2ccc(C3=NC4(CCN(S(=O)(=O)CCc5c(C)cc(N(C)C(N)=O)cc5C)CC4)C(=O)N3)cc2o1 recorded_result=118
compound=CCCSCCCCCC1=NC2(CCN([S@TB17](=O)(=O)/C=C/c3c(C)cc(N(C)C(N)=O)cc3C)CC2)C(=O)N1 recorded_result=150
compound=Cc1cc(N(C)C(N)=O)ccc1CCS(=O)(=O)N1CCC2(CC1)N=C(c1cccc(OC(F)(F)F)c1)NC2=O recorded_result=72
compound=CC(=O)Nc1ccc(CCS(=O)(=O)N2CCC3(CC2)N=C([C@H]2CC[C@H](CC(F)(F)F)CC2)NC3=O)c(C)c1 recorded_result=84
compound=Cc1cc(N(C)C(N)=O)cc(C)c1/C=C/S(=O)(=O)N1CCC2(CC1)N=C(CCCCCCCCCCCC(N)=O)NC2=O recorded_result=85
compound=Cc1cc(NC[C@H](O)CO)ccc1CCS(=O)(=O)N1CCC2(CC1)N=C(C1CCCCC1)NC2=O recorded_result=55

Summary for this compound, "Cc1cc(C(=O)N2CCC3(CC2)COC3)cc(C)c1CCS(=O)(=O)N1CCC2(CC1)N=C(c1ccc(F)c(C(F)(F)F)c1)NC2=O" : cAMP production activity (%) is 78

Lab note: measured cAMP production activity (%) of Cc1cc(N2C(=O)NC(C)(C)C2=O)ccc1CCS(=O)(=O)N1CCC2(CC1)N=C(C1CCC(CCC(F)(F)F)CC1)NC2=O (centres unmarked) was 100

These data points were gathered from patent US9169254B2.
